Settings: in toluene, 308.15 K
assay endpoint: solubility (mole fraction)
Answer with a number only.

Ask | Read the entry "Clc1ncnc2[nH]ccc12" and write its reported solubility (mole fraction).
Reply | 0.00272

###

Details: in acetone, 283.15 K
assay endpoint: solubility (mole fraction)
Please respond with just the number, no unit label.

Ask | Specify measured solubility (mole fraction) for "Clc1ncnc2[nH]ccc12" .
Reply | 0.0165

###

Conditions: in acetonitrile, 278.15 K
assay endpoint: solubility (mole fraction)

Ask | Provide one value: measured solubility (mole fraction) of "Clc1ncnc2[nH]ccc12"
Reply | 0.00218

###

Conditions: in isopropanol, 308.15 K
assay endpoint: solubility (mole fraction)
Number, no unit, nothing else.

Ask | Retrieve solubility (mole fraction) measured for "Clc1ncnc2[nH]ccc12" and print it.
Reply | 0.0226

###

Settings: in acetone, 323.15 K
assay endpoint: solubility (mole fraction)
Would you mind answering with just the numeric figure?

Ask | Assign solubility (mole fraction) to the following record: "Clc1ncnc2[nH]ccc12"
Reply | 0.0409

###

Settings: in methanol, 318.15 K
assay endpoint: solubility (mole fraction)
// return a plain number; no unit text

Ask | Consider the compound "Clc1ncnc2[nH]ccc12" and give its recorded solubility (mole fraction).
Reply | 0.0236

###

Conditions: in n-butanol, 283.15 K
assay endpoint: solubility (mole fraction)
Note: the reply should be a number with no unit written.

Ask | Give a short answer stating reported solubility (mole fraction) for "Clc1ncnc2[nH]ccc12" .
Reply | 0.0139

###

Conditions: in n-heptane, 293.15 K
assay endpoint: solubility (mole fraction)
API doc: respond with a numeric literal and nothing else, no unit.

Ask | Please give the documented solubility (mole fraction) of "Clc1ncnc2[nH]ccc12"
Reply | 0.0012

###

Conditions: in n-hexane, 323.15 K
assay endpoint: solubility (mole fraction)
Reply with just the number.

Ask | Tell me its solubility (mole fraction) given "Clc1ncnc2[nH]ccc12" as the entry.
Reply | 0.00306

###

Conditions: in ethanol, 283.15 K
assay endpoint: solubility (mole fraction)
Lab note: jot down the number only; don't add units.

Ask | Please look at this molecule and report its solubility (mole fraction): "Clc1ncnc2[nH]ccc12"
Reply | 0.0098

###

Settings: in isopropanol, 313.15 K
assay endpoint: solubility (mole fraction)
Lab note: record just the number, no unit beside it.

Ask | Please supply the value of reported solubility (mole fraction) for the item "Clc1ncnc2[nH]ccc12"
Reply | 0.0258

###

Conditions: in methanol, 303.15 K
assay endpoint: solubility (mole fraction)

Ask | Provide measured solubility (mole fraction) value, entry: "Clc1ncnc2[nH]ccc12"
Reply | 0.0152

###

Settings: in ethanol, 308.15 K
assay endpoint: solubility (mole fraction)
Give the figure by itself; no unit, no explanation.

Ask | Please indicate solubility (mole fraction) recorded for "Clc1ncnc2[nH]ccc12"
Reply | 0.0199

###

Conditions: in toluene, 298.15 K
assay endpoint: solubility (mole fraction)
Just the number, please.

Ask | Using known records, supply solubility (mole fraction) for "Clc1ncnc2[nH]ccc12"
Reply | 0.00186

###

Conditions: in isopropanol, 293.15 K
assay endpoint: solubility (mole fraction)
Just the number.

Ask | Quick one: give measured solubility (mole fraction) for "Clc1ncnc2[nH]ccc12"
Reply | 0.0151

###

Conditions: in isopropanol, 283.15 K
assay endpoint: solubility (mole fraction)
Reply with the value as a number alone.

Ask | Identify solubility (mole fraction) associated with the molecule "Clc1ncnc2[nH]ccc12"
Reply | 0.0113
